B1: MEF2-activating motif and SAP domain-containing transcriptional regulator, residues 170 to 204; numbered along this chain, Q6ZN01 (parent)
chain: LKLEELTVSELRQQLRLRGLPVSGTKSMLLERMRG

Variants of: B1
METHOD: abundance fitness (aPCA) (normalised: wild type 0, dead -1); higher = more abundant; growth selection in yeast, the domain comes from the species named
STUDY_CONDITIONS: Homo sapiens
VALUE_TYPE: abundance fitness
// keep it numeric: no unit symbol after the value

Worked cases, abundance fitness given:
I am curious: what abundance fitness value has been reported for L30G ?
-0.493

For E4Q , what is its reported abundance fitness?
-0.317

If you can, please state the reported abundance fitness value of R34M .
-0.416

Quick one: abundance fitness for S23R ?
-0.384

Form field: reported abundance fitness of P21G
-0.297

Next:
# abundance fitness lookup, item E4T
-0.171

Find the recorded abundance fitness belonging to V22E and report it.
0.025

Please report the recorded abundance fitness for E5C .
-0.183

Could you share which abundance fitness value was measured for R12Y ?
-0.495

Data request, read-out abundance fitness, for G19R
-0.337

What value of abundance fitness has been recorded for this entry: S9G
-0.111
